The origin of these recorded values is ChEMBL document CHEMBL1275603.

- System: Escherichia coli
- Assay details: Antimicrobial activity against hospital-acquired Escherichia coli expressing extended spectrum beta-lactamase obtained from patient with intra-abdominal infection assessed as susceptible isolates by EUCAST method
- Assay type: functional
Below, each of the molecules is paired with its reported Activity value.
# output: number + unit

| Molecule | Measured property | Result |
| --- | --- | --- |
| C[C@H]1COc2c(N3CCN(C)CC3)c(F)cc3c(=O)c(C(=O)O)cn1c23.C[C@H]1COc2c(N3CCN(C)CC3)c(F)cc3c(=O)c(C(=O)O)cn1c23.O [LEVOFLOXACIN] | Activity | 24.8% |
| C[C@@H](O)[C@H]1C(=O)N2C(C(=O)O)=C(S[C@@H]3CN[C@H](C(=O)Nc4cccc(C(=O)O)c4)C3)[C@H](C)[C@H]12 [ERTAPENEM] | Activity | 99.2% |
| CO/N=C(\C(=O)N[C@@H]1C(=O)N2C(C(=O)O)=C(COC(C)=O)CS[C@H]12)c1csc(N)n1 [CEFOTAXIME] | Activity | 3.3% |
| CO/N=C(\C(=O)N[C@@H]1C(=O)N2C(C(=O)[O-])=C(C[N+]3(C)CCCC3)CS[C@H]12)c1csc(N)n1 [CEFEPIME] | Activity | 9.9% |
| O=C(O)c1cn(C2CC2)c2cc(N3CCNCC3)c(F)cc2c1=O [CIPROFLOXACIN] | Activity | 22.3% |

Form field Activity for item CO/N=C(\C(=O)N[C@@H]1C(=O)N2C(C(=O)O)=C(CSc3nc(=O)c(O)nn3C)CS[C@H]12)c1csc(N)n1 [CEFTRIAXONE] on Escherichia coli: 3.3%

Form field Activity for item CC(C)(O/N=C(\C(=O)N[C@@H]1C(=O)N2C(C(=O)[O-])=C(C[n+]3ccccc3)CS[C@H]12)c1csc(N)n1)C(=O)O [CEFTAZIDIME] on Escherichia coli: 5.8%

Form field Activity for item C[C@@H](O)[C@H]1C(=O)N2C(C(=O)O)=C(SCCNC=N)C[C@H]12 [IMIPENEM ANHYDROUS] on Escherichia coli: 100%

Form field Activity for item NCC[C@H](O)C(=O)N[C@@H]1C[C@H](N)[C@@H](O[C@H]2O[C@H](CN)[C@@H](O)[C@H](O)[C@H]2O)[C@H](O)[C@H]1O[C@H]1O[C@H](CO)[C@@H](O)[C@H](N)[C@H]1O [AMIKACIN] on Escherichia coli: 53.7%

----------
- Tested on: Klebsiella pneumoniae
- Assay details: Antimicrobial activity against hospital-acquired Klebsiella pneumoniae obtained from patient with intra-abdominal infection assessed as susceptible isolates by EUCAST method
- Assay type: functional
Below, each of the molecules is paired with its reported Activity value.
Response body: numeric value in %, unit text excluded.

| Molecule | Activity, % |
| --- | --- |
| NCC[C@H](O)C(=O)N[C@@H]1C[C@H](N)[C@@H](O[C@H]2O[C@H](CN)[C@@H](O)[C@H](O)[C@H]2O)[C@H](O)[C@H]1O[C@H]1O[C@H](CO)[C@@H](O)[C@H](N)[C@H]1O | 92.7 |

Form field Activity for item `CO/N=C(\C(=O)N[C@@H]1C(=O)N2C(C(=O)O)=C(COC(C)=O)CS[C@H]12)c1csc(N)n1` on Klebsiella pneumoniae: 92.1

Form field Activity for item CO/N=C(\C(=O)N[C@@H]1C(=O)N2C(C(=O)[O-])=C(C[N+]3(C)CCCC3)CS[C@H]12)c1csc(N)n1 [CEFEPIME] on Klebsiella pneumoniae: 91.6
